- System: Fibroblast
- experiment: Multiplex assay against human fibroblast
- Assay type: toxicity, cell-based
- testSettings: 24 h, 1 µM, compound concentration 1 uM, replicate 1
Here the recorded Population Hoechst High Intensity Objects (%) is given for each entry.
// note: answer is a bare numeric in %

Worked set:
{"compound": "CNC(=O)c1cc(Oc2ccc(NC(=O)Nc3cc(C(C)(C)C)nn3-c3ccc4ncccc4c3)c(F)c2)ccn1 [REBASTINIB]", "valueUnit": "%", "measuredResult": 12}
{"compound": "Cc1cc2c(cc1N1C(=O)c3cccc4c(CCCO)ccc(c34)C1=O)n(C)c(=O)n2C", "valueUnit": "%", "measuredResult": 19}
{"compound": "CCOc1cc2ncc(C#N)c(Nc3ccc(OCc4cccc(F)c4)c(Cl)c3)c2cc1NC(=O)/C=C/CN(C)C [HKI-357]", "valueUnit": "%", "measuredResult": 15}
{"compound": "Cc1nc(Cc2cccc(C(F)(F)F)c2)sc1-c1ccc(C(N)=O)nc1 [TP-024n]", "valueUnit": "%", "measuredResult": 11}
{"compound": "CCn1c(-c2nonc2N)nc2cnc(Oc3cccc(NC(=O)c4ccc(OCCN5CCOCC5)cc4)c3)cc21 [GSK-269962A]", "valueUnit": "%", "measuredResult": 14}

Q. Any idea what Population Hoechst High Intensity Objects (%) was measured for CCC(=O)O[C@]1(C(=O)SCF)[C@H](C)C[C@H]2[C@@H]3C[C@H](F)C4=CC(=O)C=C[C@]4(C)[C@@]3(F)[C@@H](O)C[C@@]21C [FLUTICASONE PROPIONATE] ?
A. 25

Q. Any idea what Population Hoechst High Intensity Objects (%) was measured for CN(C)CCOc1ccc(-c2nc(-c3ccncc3)c(-c3ccc4c(c3)CC/C4=N\O)[nH]2)cc1 [SB590885] ?
A. 43

Q. Any idea what Population Hoechst High Intensity Objects (%) was measured for CCOc1cc(N2CCC(O)CC2)ccc1Nc1ncc2c(n1)N(C1CCCC1)CCC(=O)N2C ?
A. 12

Q. Any idea what Population Hoechst High Intensity Objects (%) was measured for CC(=O)c1cc(-c2cc(C(=O)NC3CC3)ccc2C)c2ncccn12 ?
A. 15

Q. Any idea what Population Hoechst High Intensity Objects (%) was measured for COc1cc(N2CCC(N(C)C)CC2)ccc1Nc1ncc(Cl)c(Nc2ccccc2P(C)(C)=O)n1 ?
A. 14

# credit: ChEMBL document CHEMBL4689842
